# Target system: human MOPr (Homo sapiens, UniProt P35372)
# Sequence (P35372 whole entry): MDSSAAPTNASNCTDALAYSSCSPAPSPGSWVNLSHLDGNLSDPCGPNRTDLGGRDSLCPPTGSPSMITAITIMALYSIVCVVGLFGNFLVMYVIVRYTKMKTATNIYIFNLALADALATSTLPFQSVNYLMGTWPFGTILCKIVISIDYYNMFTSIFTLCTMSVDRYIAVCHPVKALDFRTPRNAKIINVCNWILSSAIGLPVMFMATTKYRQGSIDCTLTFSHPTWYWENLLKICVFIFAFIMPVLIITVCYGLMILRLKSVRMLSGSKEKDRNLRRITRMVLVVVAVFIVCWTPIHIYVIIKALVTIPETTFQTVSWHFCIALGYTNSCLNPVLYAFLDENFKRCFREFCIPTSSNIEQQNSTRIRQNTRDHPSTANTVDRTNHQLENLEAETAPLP
# Run description: cell-based
# Format: cell-based
# Parameters: expressed in transfected cells; HEK293-Glo20F cells (cAMP)
# Measurement context: read-out: MOPr (cAMP) Emax
Starred links: 1 amine or outer side, 2 acyl side, 3 side chain; linkers in the order of their positions; H or OH if unused. Non-standard residues stand in square brackets, D forms with d. Residues, ends and D or L forms follow the SMILES beside them. *: point of attachment. Nva(5-(4-Bn-piperidin-1-yl)) = N[C@@H](CCCN1CCC(Cc2ccccc2)CC1)C(=O)O; X1 = O=C1[C@@H](N[*:1])Cc2ccccc2CN1CCC(=O)[*:2]; Dmt = Cc1cc(O)cc(C)c1C[C@H](N)C(=O)O; X2 = c1ccc2[nH]c(*)nc2c1; dNMeA = CN[C@H](C)C(=O)O
Listed compounds paired with reported Emax

{"Compound": "Cc1cc(O)cc(C)c1C[C@H](N)C(=O)N[C@H](CCCNC(=N)N)C(=O)N[C@@H](Cc1ccccc1)C(=O)N(C)[C@H](C)C(=O)N[C@@H](CCCN1CCC(Cc2ccccc2)CC1)C(=O)N[C@@H](Cc1ccccc1)C(N)=O [DP0030, H-Dmt-D-Arg-Phe-N(Me)-D-Ala-Bpa-Phe-NH2] (H-[Dmt][dR]F[dNMeA][Nva(5-(4-Bn-piperidin-1-yl))]F-NH2)", "Emax": "111%"}
{"Compound": "Cc1cc(O)cc(C)c1C[C@H](N)C(=O)N[C@H](CCCNC(=N)N)C(=O)N[C@H]1Cc2ccccc2CN(CC(=O)N[C@@H](CCCN)C(=O)N[C@@H](Cc2ccccc2)C(N)=O)C1=O", "Emax": "70%"}
{"Compound": "Cc1cc(O)cc(C)c1C[C@H](N)C(=O)N[C@H](CCCNC(=N)N)C(=O)N[C@H]1Cc2ccccc2CN(CCC(=O)N[C@@H](CCCCNc2nc3ccccc3[nH]2)C(=O)N[C@@H](Cc2ccccc2)C(N)=O)C1=O [KGFF14, H-Dmt-D-Arg-Aba-β-Ala-Lys(Bim)-Phe-NH2] (H-[Dmt][dR][X1]K(X2)F-NH2)", "Emax": "99%"}

* * *

Listed compounds paired with reported EC50
# Target system: UniProt P35372
# Run description: BRET1 β-arrestin-2 recruitment assay
# Type: cell-based
# Parameters: expressed in transfected cells; host or cells: HEK293 cells stably expressing eYFP-β-arrestin-2, transiently transfected with the Rluc8-MOP plasmid
Starred links: 1 amine or outer side, 2 acyl side, 3 side chain; linkers in the order of their positions; H or OH if unused. Non-standard residues stand in square brackets, D forms with d. Residues, ends and D or L forms follow the SMILES beside them. *: point of attachment. Nva(5-(4-Bn-piperidin-1-yl)) = N[C@@H](CCCN1CCC(Cc2ccccc2)CC1)C(=O)O; X1 = O=C1[C@@H](N[*:1])Cc2ccccc2CN1CCC(=O)[*:2]; Tic(7-OH) = O=C(O)[C@@H]1Cc2ccc(O)cc2CN1; Dmt = Cc1cc(O)cc(C)c1C[C@H](N)C(=O)O; Nicotinoyl = O=C(c1cccnc1)*

{"Compound": "Cc1cc(O)cc(C)c1C[C@H](N)C(=O)N[C@H](CCCCNC(=O)c1cccnc1)C(=O)N[C@H]1Cc2ccccc2CN(CCC(=O)N[C@@H](CCCN2CCC(Cc3ccccc3)CC2)C(=O)N[C@@H](Cc2ccccc2)C(N)=O)C1=O [DP0034, H-Dmt-D-Lys(Nic)-Aba-β-Ala-Bpa-Phe-NH2] (H-[Dmt][dK](Nicotinoyl)[X1][Nva(5-(4-Bn-piperidin-1-yl))]F-NH2)", "EC50": "5 to 50 nM"}
{"Compound": "N=C(N)NCCC[C@@H](NC(=O)[C@@H]1Cc2ccc(O)cc2CN1)C(=O)N[C@H]1Cc2ccccc2CN(CCC(=O)N[C@@H](CCCN2CCC(Cc3ccccc3)CC2)C(=O)N[C@@H](Cc2ccccc2)C(N)=O)C1=O [DP0031, 7-OH-Tic-D-Arg-Aba-β-Ala-Bpa-Phe-NH2] (H-[Tic(7-OH)][dR][X1][Nva(5-(4-Bn-piperidin-1-yl))]F-NH2; N-terminus assumed)", "EC50": "> 500 nM"}
{"Compound": "Cc1cc(O)cc(C)c1C[C@H](N)C(=O)N[C@H](CCCNC(=N)N)C(=O)N[C@H]1Cc2ccccc2CN(CCC(N)=O)C1=O [KGOP01, reference compound]", "EC50": "1.6 nM"}

Recorded values, source patent US20210002231A1.
